tested on: SK-MEL-2 melanoma; assay: NCI tumour cell line growth inhibition, 48 h
Consider the following compounds; for each one, report its TGI.

Per the record, COC(=O)[C@H](Cc1cn(C)cn1)NC(=O)[C@H](Cc1ccccc1)NC(=O)Nc1cc(C(F)(F)F)cc(C(F)(F)F)c1 has TGI of 32.3 µM

Recorded TGI (compound COc1ccc(-c2cc3cc(Cl)cc(Cl)c3oc2=O)cc1OC ): > 100 µM

TGI reading for CCC1([N+](=O)[O-])CN(N=O)C1 : > 100 µM

The compound identified as CO/N=C(\COc1ccc2oc(-c3ccccc3)cc(=O)c2c1)c1ccc(F)cc1 registered its TGI at 73.3 µM

Reported TGI ( Nc1c2ccccc2nc2c(C(=O)Nc3ccc(S(N)(=O)=O)cc3)cccc12 ) = > 100 µM

Form field TGI, entry CC(SCc1ccccc1)C(=O)O (stereo not given) : > 100 µM

The compound identified as Cc1ccc(C)c(COCCOCn2cc(N3CCOCC3)c(=O)[nH]c2=O)c1 registered its TGI at > 100 µM

Documented TGI of CCOC(=O)C(NC(=O)c1cccc(Cl)c1)(Nc1cccc(C)c1)C(F)(F)F (stereo not given) : 31.8 µM

Kindly note the recorded TGI for C[C@@H]1CC[C@@]2(NC1)O[C@H]1C[C@H]3[C@@H]4CC[C@H]5C[C@@H](O)CC[C@]5(C)[C@H]4CC[C@]3(C)[C@H]1[C@@H]2C , which is > 100 µM

Just so you know, measured TGI for COC(=O)C1CCc2nnc(-c3ccccc3)n21 (stereo not given) came out at > 100 µM

* * *

test system: HOP-92 NSCLC; experiment: NCI tumour cell line growth inhibition, 48 h
Quantity Measured: TGI (µM)
The figure you give is taken to be in µM; do not add the unit.

Reported TGI of CCOC(=O)C(NC(=O)c1cccc(Cl)c1)(Nc1cccc(C)c1)C(F)(F)F (stereo unspecified) : 29

// TGI lookup, compound = O=C(C(=C(I)I)c1ccccc1)c1ccccc1 , result: 82.9

So, Cn1c(=O)cc(NNc2ccc(Cl)c(Cl)c2)[nH]c1=O ? Its TGI was 28.5

The reported value for CN(C)CCNCCCNc1c2ccccc2nc2cccc([N+](=O)[O-])c12 in terms of TGI is 0.0346

The compound listed as Clc1ccc(/C(=C/c2ccccc2)Cn2ccnc2)cc1 shows TGI equal to 67.2

* * *

system: HCT-116 colon; assay: NCI tumour cell line growth inhibition, 48 h
Quantity Measured: TGI

Sample OC(CC(O)(C(F)(F)Cl)C(F)(F)Cl)c1ccccc1 (stereo unspecified) ; TGI observed: > 10 µM

Consider COc1ccc([C@@H]2OC(=O)C3C2C(=O)O[C@H]3c2ccc(OC)c(OC)c2)cc1OC (stereo partly specified) . Its measured TGI is > 100 µM

Value of TGI reported for the molecule O=c1c2cc3ccccc3n2c(=O)c2cc3ccccc3n12 is > 100 µM

Recorded TGI (molecule O=C(NC(C(F)(F)F)(C(F)(F)F)P(=O)(Cc1ccccc1)Cc1ccccc1)C(C(F)(F)F)C(F)(F)F ): 33.1 µM

// TGI value for N#CC1=C(N)NC(=O)NC12Nc1ccccc1N2 : > 100 µM

Looking up Nc1ccc(/C=C/c2ccc3cccnc3c2)cc1 , I found its TGI recorded as > 100 µM

Noted for CCOC(=O)N1CCN(c2c(N)nc(C)[nH]c2=O)CC1 : its TGI reads > 100 µM

Per the record, CCC[CH2][Sn]1([CH2]CCC)[S]CC[N]1S(=O)(=O)c1ccc(C)cc1 has TGI of 2.81 µM

Please fill in: TGI reported for CCCn1cc2c3c(cccc31)C1C=C(C)CN(C)C1C2 (stereo unspecified) = 38.5 µM

// sample Cc1cc(O)c(-c2ccc([C@@H](C)CN(C)C)cc2)c2c1[nH]c(=O)c1sccc12 , its TGI was 8.87 µM

GET /value?item= Cc1cccc2c1CC(Cc1ccccc1C(=O)O)C2=O (stereo unspecified) &field=TGI returns > 100 µM

Kindly note the recorded TGI for NC(=O)c1ccc(Cl)c([N+](=O)[O-])c1 , which is > 100 µM

// TGI lookup, molecule = O=C1C=CC(=O)c2c(O)c(N3CCC[C@@H]3CO)c(Cl)c(O)c21 , result: 2.91 µM

Reported TGI of NC(=O)c1ccc[n+](C2=C([O-])c3ccccc3C(=O)/C2=N\S(=O)(=O)c2ccccc2)c1 : 32.4 µM

For reference, reported TGI for CC(C)(C)OC(=O)Nc1ccc2c(c1)C(NC(=O)Nc1cccc(C#N)c1)CC(C)(C)O2 (stereo unspecified) stands at > 44.6 µM

Kindly note the recorded TGI for CC(=O)NN1C(=O)C(Cc2ccccc2)c2ccccc21 (stereo unspecified) , which is > 100 µM

molecule NC(=O)C1CCN(Cc2c(Cl)c(Cl)c(CN3CCC(C(N)=O)CC3)c(Cl)c2Cl)CC1 , TGI observed: > 100 µM

Query CCOC(=O)c1c(-c2ccccc2)c(OC)cn1C yields TGI of > 10 µM

Entry CCC1([N+](=O)[O-])CN(N=O)C1 , TGI reported as > 100 µM

Short answer for COc1ccc2c(c1)CN1CCc3c(cc(OC)c(OC)c3OC)C1C2 (stereo unspecified) : TGI was > 100 µM

So, CC1(C)OCC(C2OC(C)(C)OC2[C@H]2O[C@@]3(O)[C@H]4[C@H](C=CC[C@@H]42)[C@@H](OCc2ccccc2)[C@H](OCc2ccccc2)[C@H]3OCc2ccccc2)O1 (stereo partly specified) ? Its TGI was > 100 µM

* * *

test system: RPMI-8226 leukemia; test: NCI tumour cell line growth inhibition, 48 h
Quantity Measured: TGI

The reported TGI value, RPMI-8226 leukemia, for O=C([O-])CC(=O)[O-].[NH-][C@@H]1CCCC[C@H]1[NH-].[Pt+4] reads > 100 µM

The reported RPMI-8226 leukemia TGI of CC(C)(C)OC(=O)N[C@@H](Cc1ccccc1)C(=O)N(Cc1ccccc1)C1(C(=O)NCc2ccccc2)CCN(Cc2ccccc2)CC1 is 6.98 µM

TGI for RPMI-8226 leukemia with input CC(C)(C)N=NC(C)(C)N=C=O equals > 100 µM

Bench note, RPMI-8226 leukemia: CCOC(=O)[C@@H](Cc1ccc(CCl)cc1)NC(C)=O , TGI reads 88.4 µM

TGI on RPMI-8226 leukemia for NC(=O)C1CCN(Cc2c(Cl)c(Cl)c(CN3CCC(C(N)=O)CC3)c(Cl)c2Cl)CC1 is > 100 µM

Here N#CCCN(CCC#N)c1ccc(C(N=Nc2ccccc2)=Nc2ccc(F)cc2)cc1 was tested on RPMI-8226 leukemia, and its TGI came to > 100 µM

Entry CCC(CO)Nc1nc2c(c(=O)n(C)c(=O)n2C)n1CCO (stereo not drawn) : TGI on RPMI-8226 leukemia = > 100 µM

Cc1cccc2c1CC(Cc1ccccc1C(=O)O)C2=O (stereo not drawn) tested on RPMI-8226 leukemia gave TGI: > 100 µM

Lab entry: RPMI-8226 leukemia assay, molecule COC(C)C(O)(C(=O)OCC1=CCN2CCC(O)C12)C(C)(C)O (stereo not drawn) , TGI = > 100 µM

Record C[As+](C)(c1ccc(Br)c([N+](=O)[O-])c1)c1ccc(Br)c([N+](=O)[O-])c1.O=[N+]([O-])O / RPMI-8226 leukemia, TGI recorded as > 100 µM

So the reported TGI for O=C1CSC(c2c[nH]c3ccccc23)N1c1ccc(Cl)cc1Cl (stereo not drawn) , on RPMI-8226 leukemia, turned out to be > 100 µM

Field TGI (system: RPMI-8226 leukemia) for entry Cc1ncc(CI)c(CI)c1O = 31.4 µM

Reported TGI (RPMI-8226 leukemia) for entry CCOC(=O)c1c(-c2ccccc2)c(OC)cn1C is > 10 µM

Bench note, RPMI-8226 leukemia: entry CNC(=O)CN(CC(=O)O)C(=O)NC , its TGI = > 100 µM

TGI value, target or system RPMI-8226 leukemia, for COc1ccc2nc3cc(Cl)ccc3c(Nc3cc(CN4CCCC4)c(O)c(CN4CCCC4)c3)c2n1 : 5.7 µM

# lookup: CN(C)/N=N/c1nc2c(c(=O)n(C)c(=O)n2C)n1CC1CO1 (stereo not drawn) on RPMI-8226 leukemia, TGI = 93.1 µM

Observed TGI on RPMI-8226 leukemia, entry O=C[C@@H](CO)O[C@H](C=O)n1cnc2c(=O)[nH]cnc21 , equals 633 µM

The molecule CC1(C)CCC[C@]2(C)c3ccccc3C(=O)CC12 (stereo partly drawn) , when measured on RPMI-8226 leukemia, yielded TGI of > 100 µM

* * *

tested on: M14 melanoma; assay: NCI tumour cell line growth inhibition, 48 h; in the data active = GI50 below about 0.43 µM; inactive = the rest
Outcome field: choose from active, inactive

Any idea what this test logged for C=C(C)[C@@H]1CC[C@]2(C(=O)NS(=O)(=O)c3ccccc3)CC[C@]3(C)[C@H](CC[C@@H]4[C@@]5(C)CC[C@H](OC(=O)NS(=O)(=O)c6ccccc6)C(C)(C)[C@@H]5CC[C@]43C)[C@@H]12 ?
inactive

Write down the call the test reported for this molecule. Item: CC1SC(c2ccc(Cl)cc2Cl)N(NC(=O)C(O)c2ccccc2)C1=O (configuration not stated)
inactive

Given C=C1CCC2C3(C)COC(c4ccccc4Cl)OC3CCC2(C)C1/C=C/C1=CCOC1=O (configuration not stated) , state the outcome it received in this test.
inactive

What outcome does the record of this test show for CC(C)(C)OC(=O)Nc1ccc2c(c1)C(NC(=O)Nc1cccc(C#N)c1)CC(C)(C)O2 (configuration not stated) ?
inactive

Just curious, what result did CCC[CH2][Sn]1([CH2]CCC)[S]CC[N]1S(=O)(=O)c1ccc(C)cc1 get here?
inactive

# lookup: test call for COc1ccc2[nH]c(C(=O)OCc3ccc4c(Cl)cc(Cl)c(O)c4n3)cc2c1
inactive

Record request — test call for COc1ccc(S(=O)(=O)N(C(C)=O)c2ccccc2/C=C/c2cc[n+]([O-])cc2)cc1
active
